# MEASUREMENT TARGET: His-tagged CRBN-DDB1 complex (Homo sapiens (Human), UniProt Q96SW2)
# Sequence (Q96SW2 whole entry): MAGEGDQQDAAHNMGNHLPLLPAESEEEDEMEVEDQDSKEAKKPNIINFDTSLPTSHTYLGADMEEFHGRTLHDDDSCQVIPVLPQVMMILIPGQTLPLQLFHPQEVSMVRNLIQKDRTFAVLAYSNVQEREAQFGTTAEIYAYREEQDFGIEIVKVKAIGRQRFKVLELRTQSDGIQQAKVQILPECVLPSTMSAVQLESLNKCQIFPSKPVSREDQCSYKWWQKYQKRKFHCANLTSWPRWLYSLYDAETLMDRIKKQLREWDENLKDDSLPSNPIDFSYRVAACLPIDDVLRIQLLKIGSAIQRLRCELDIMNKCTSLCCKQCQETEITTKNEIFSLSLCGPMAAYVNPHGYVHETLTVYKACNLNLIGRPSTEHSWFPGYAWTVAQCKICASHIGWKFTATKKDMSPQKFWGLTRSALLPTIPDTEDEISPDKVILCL
# Sequence (Q16531 whole entry partner): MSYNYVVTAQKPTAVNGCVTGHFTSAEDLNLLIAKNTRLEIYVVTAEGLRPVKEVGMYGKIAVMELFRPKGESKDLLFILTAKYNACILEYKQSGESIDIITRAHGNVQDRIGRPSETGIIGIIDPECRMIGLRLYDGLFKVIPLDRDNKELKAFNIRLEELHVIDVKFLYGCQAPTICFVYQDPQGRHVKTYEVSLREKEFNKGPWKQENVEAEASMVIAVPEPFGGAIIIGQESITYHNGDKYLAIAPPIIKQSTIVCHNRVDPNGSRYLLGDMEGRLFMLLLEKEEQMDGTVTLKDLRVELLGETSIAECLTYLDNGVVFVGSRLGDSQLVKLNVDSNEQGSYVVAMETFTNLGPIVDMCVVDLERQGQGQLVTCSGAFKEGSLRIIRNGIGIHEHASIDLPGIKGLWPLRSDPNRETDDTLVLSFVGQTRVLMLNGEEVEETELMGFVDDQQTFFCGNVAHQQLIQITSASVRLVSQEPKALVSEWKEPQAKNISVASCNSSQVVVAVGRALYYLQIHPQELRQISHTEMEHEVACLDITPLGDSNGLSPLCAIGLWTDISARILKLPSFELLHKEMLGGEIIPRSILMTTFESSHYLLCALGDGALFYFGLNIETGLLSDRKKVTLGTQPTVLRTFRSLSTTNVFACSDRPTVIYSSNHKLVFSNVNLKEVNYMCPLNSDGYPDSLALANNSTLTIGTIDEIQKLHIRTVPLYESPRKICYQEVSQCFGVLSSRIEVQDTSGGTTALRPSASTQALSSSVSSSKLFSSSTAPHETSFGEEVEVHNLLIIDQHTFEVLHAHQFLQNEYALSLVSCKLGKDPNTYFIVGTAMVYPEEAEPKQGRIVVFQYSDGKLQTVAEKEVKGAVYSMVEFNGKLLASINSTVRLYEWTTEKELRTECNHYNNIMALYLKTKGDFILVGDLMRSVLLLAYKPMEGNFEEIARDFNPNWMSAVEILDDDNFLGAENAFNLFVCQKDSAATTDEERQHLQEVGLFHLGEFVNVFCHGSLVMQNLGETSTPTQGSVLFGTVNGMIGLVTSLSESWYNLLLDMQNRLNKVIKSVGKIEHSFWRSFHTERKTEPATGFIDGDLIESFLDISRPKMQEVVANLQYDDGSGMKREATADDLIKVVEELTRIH
# PROTOCOL NOTES: Time-Resolved Fluorescence Resonance Energy Transfer (TR-FRET) assay
# Format: binding
# CONDITION: read-out: CRBN HTRF IC50
pIC50: −log10 of the molar value.

| COMPOUND | pIC50 |
| --- | --- |
| O=C1CCN(Cc2ccccc2)C(=O)N1 [Compound I-24, 1-Benzyl-dihydro-pyrimidine-2,4-dione] | 4.00 to 5.00 |
| Nc1cc(C(F)(F)F)ccc1SC1CCC(=O)NC1=O (stereo not drawn) | 4.00 to 5.00 |
| CCc1ccc([S+]([O-])C2CCC(=O)NC2=O)cc1 (stereo not drawn) | 4.00 to 5.00 |
| CN(C)C(=O)c1cccnc1SC1CCC(=O)NC1=O (stereo not drawn) | 4.00 to 5.00 |
| Cn1ccc(CN2CCC(=O)NC2=O)n1 | 4.00 to 5.00 |
| O=C1CCC(Sc2cc(Cl)ccc2Cl)C(=O)N1 (stereo not drawn) | 5.00 to 6.00 |
| O=c1ccn(-c2ccccc2)c(=O)[nH]1 | 4.00 to 5.00 |
| O=C1CCC(Sc2ccc(F)c(F)c2)C(=O)N1 (stereo not drawn) | 4.00 to 5.00 |
| Nc1cc(=O)nc(SC2CCC(=O)NC2=O)[nH]1 (stereo not drawn) | 4.00 to 5.00 |
| Cc1c(SC2CCC(=O)NC2=O)cccc1C(=O)O (stereo not drawn) | 4.00 to 5.00 |
| O=C1CCC(Sc2nc3ccccc3[nH]2)C(=O)N1 (stereo not drawn) | 4.00 to 5.00 |
| O=C1CCC(Sc2ccncc2)C(=O)N1 (stereo not drawn) | 4.00 to 5.00 |
| COCCOCCNC(=O)c1cccnc1SC1CCC(=O)NC1=O (stereo not drawn) | 5.00 to 6.00 |
| O=C1CCC(Sc2ccccc2)C(=O)N1 (stereo not drawn) | 4.00 to 5.00 |
| COc1ccccc1SC1CCC(=O)NC1=O (stereo not drawn) | 4.00 to 5.00 |
| CN(C)C(=O)c1ccnc(SC2CCC(=O)NC2=O)c1 (stereo not drawn) | 4.00 to 5.00 |
| Cn1nc(N2CCC(=O)NC2=O)cc1-c1ccccc1 | 4.00 to 5.00 |
| CN(C)c1ccc(OC2CCC(=O)NC2=O)cc1 (stereo not drawn) | 5.00 to 6.00 |

###

Listed here are compounds together with their documented pIC50.
# MEASUREMENT TARGET: His-tagged CRBN-DDB1 complex (Homo sapiens (Human))
# PROTOCOL NOTES: Time-Resolved Fluorescence Resonance Energy Transfer (TR-FRET) assay
# Format: binding
# CONDITION: read-out: CRBN HTRF IC50
pIC50: −log10 of the molar value.

| COMPOUND | MEASUREMENT TARGET | pIC50 |
| --- | --- | --- |
| CCOc1cccc(SC2CCC(=O)NC2=O)c1 (centres unmarked) | His-tagged CRBN-DDB1 complex (Homo sapiens (Human)) | 5.00 to 6.00 |
| Cc1cc(C)nc(SC2CCC(=O)NC2=O)n1 (centres unmarked) | His-tagged CRBN-DDB1 complex (Homo sapiens (Human)) | 4.00 to 5.00 |
| O=C1CCC(Sc2nc(=O)cc(-c3ccccc3)[nH]2)C(=O)N1 (centres unmarked) | His-tagged CRBN-DDB1 complex (Homo sapiens (Human)) | 4.00 to 5.00 |
| O=C1CCC(Sc2ccc(Br)cn2)C(=O)N1 (centres unmarked) | His-tagged CRBN-DDB1 complex (Homo sapiens (Human)) | 5.00 to 6.00 |
| O=C1CCC(Sc2ccccc2C(F)(F)F)C(=O)N1 (centres unmarked) | His-tagged CRBN-DDB1 complex (Homo sapiens (Human)) | 4.00 to 5.00 |
